Each recorded value in this set is attributed to PubChem BioAssay (NCI).

Test system: DU-145 prostate
Experiment: NCI-60 one-dose screen, 48 h
Details: 10 µM unless noted
Compounds without any hit were thinned out: in the full panel of roughly 83,000, 20% have a hit. The source made the active and inactive calls. Rule for the calls: active = growth percent below 10; inactive = the rest.
Outcomes: 1.0 for active, 0.0 for inactive

>  <compound>
N/N=C(\C(=N\N)c1ccccc1)c1ccccc1

>  <assigned.class>
0.0

$$$$
>  <compound>
COc1cc([N+](=O)[O-])cc(OC)c1OC

>  <assigned.class>
0.0

$$$$
>  <compound>
Clc1ccc(C2=NN[C@H](c3cn(-c4ccccc4)nc3-c3ccccc3)C2)cc1

>  <assigned.class>
0.0

$$$$
>  <compound>
CC(C)[C@@H]1C=C2CC[C@H]3[C@](C)(CN)CCC[C@]3(C)[C@H]2CC1

>  <assigned.class>
0.0

$$$$
>  <compound>
CCCCCCCCCCCCNC(=O)N[C@H](C(=O)N[C@H]1/C=C/OCCNC(=O)/C=C/[C@H](C(C)C)NC1=O)C(C)C

>  <assigned.class>
0.0

$$$$
>  <compound>
CCN1CCN(Cc2ccc(NC(=O)Nc3ccc(-n4ccc5c(NC(=O)c6ccccc6)nccc54)cc3)cc2C(F)(F)F)CC1

>  <assigned.class>
1.0

$$$$
>  <compound>
C[C@@H]1N=C(c2ccc3ccccc3c2)Nc2nc3ccccn3c2C1=O

>  <assigned.class>
0.0

$$$$
>  <compound>
O=C(/C=C/c1ccc(F)cc1)N1CCN(C(=O)/C=C/c2ccc(C(F)(F)F)cc2)CC1

>  <assigned.class>
0.0

$$$$
>  <compound>
Cc1cc(-c2ccc(N=Nc3c(S(=O)(=O)O)cc4cc(S(=O)(=O)O)cc(O)c4c3O)c(C)c2)ccc1N=Nc1c(S(=O)(=O)O)cc2cc(S(=O)(=O)O)cc(O)c2c1O

>  <assigned.class>
0.0

$$$$
>  <compound>
O/N=C1\c2ccccc2-c2ccc(Br)cc21

>  <assigned.class>
0.0

$$$$
>  <compound>
CC(C)[C@@]12C[C@@H](OC(=O)C3CO3)[C@@](C)(O1)[C@@H]1CC[C@@H](C)[C@H]1[C@@H]2OC(=O)/C=C/c1ccccc1 (stereo partly specified)

>  <assigned.class>
0.0

$$$$
>  <compound>
O=S(=O)(Cc1ccc(Cl)cc1Cl)c1ccc(Cl)cc1

>  <assigned.class>
0.0

$$$$
>  <compound>
Cc1cc(O)c2cc3c(O)c(O)ccc3cc2c1

>  <assigned.class>
0.0

$$$$
>  <compound>
CCCCCCCCCCCC1=NC(C)(C)CN1CC(C)O (stereo unspecified)

>  <assigned.class>
0.0

$$$$
>  <compound>
CCOC(OCC)c1cnc2nc(NC(C)=O)[nH]c(=O)c2n1

>  <assigned.class>
0.0

$$$$
>  <compound>
CCCCc1nc(Cl)c(C2CC(c3ccc(S(N)(=O)=O)cc3)=NN2c2cc(Cl)cc(Cl)c2)[nH]1 (stereo unspecified)

>  <assigned.class>
0.0

$$$$
>  <compound>
COc1cc2ncnc(Nc3ccc(S(=O)(=O)Nc4cc(C)on4)cc3)c2cc1OCCCN1CCN(c2ccc([N+](=O)[O-])cc2)CC1

>  <assigned.class>
0.0

$$$$
>  <compound>
CN(C)CCCN1c2ccccc2CCc2ccccc21

>  <assigned.class>
0.0

$$$$
>  <compound>
CC(C)(C)c1ccc(OC(=O)Nc2ccccc2)cc1

>  <assigned.class>
0.0

$$$$
>  <compound>
Clc1ccc(-c2cnc3c(-c4ccnc(N5CCNCC5)c4)cnn3c2)cc1

>  <assigned.class>
0.0

$$$$
>  <compound>
CCCCCCCCCCCCCCCC1=NC(C)(C)CN1C(C)C

>  <assigned.class>
1.0

$$$$
>  <compound>
CC(=O)c1ccc(Br)c([N+](=O)[O-])c1

>  <assigned.class>
0.0

$$$$
>  <compound>
C(=Nc1ccc(-c2ccc(N=Cc3ccccc3)cc2)cc1)c1ccccc1

>  <assigned.class>
0.0

$$$$
>  <compound>
CC(C)CCSc1nc(-c2ccc(F)cc2)c(C#N)c(N2CCCCC2)n1

>  <assigned.class>
0.0

$$$$
>  <compound>
O=C1NN(C(=O)c2ccccc2)C(c2ccc(Cl)c(Cl)c2)=C/C1=C\c1ccccc1[N+](=O)[O-]

>  <assigned.class>
0.0

$$$$
>  <compound>
CCOC(=O)c1ccc2c(c1)nc(-c1ccc(Cl)cc1)n2-c1cc(C(C)(C)C)[nH]n1

>  <assigned.class>
0.0

$$$$
>  <compound>
CCCCCCCC/C=C/CCCCCCCC1=NC(C)(C)CN1C(C)C

>  <assigned.class>
0.0

$$$$
>  <compound>
CCOC(=O)c1ccc2c(c1)[n+](=O)c(C(=O)c1ccc3ccccc3c1)c(C(F)(F)F)n2[O-]

>  <assigned.class>
1.0

$$$$
>  <compound>
CC1=C(O)C(=O)CC1

>  <assigned.class>
0.0

$$$$
>  <compound>
CS(=O)(=O)c1ccc(C(=O)N/N=C/c2ccccc2O)cc1

>  <assigned.class>
0.0

$$$$
>  <compound>
CC(C)(c1ccccc1)c1cc(O)c(C(C)(C)c2ccccc2)cc1O

>  <assigned.class>
0.0

$$$$
>  <compound>
O=[N+]([O-])c1ccc(N/N=C/c2ccccc2O)nc1

>  <assigned.class>
0.0

$$$$
>  <compound>
CCCCCc1c(C)[nH]c(/C=C2\N=C(c3ccc[nH]3)C=C2Oc2ccc(OC)cc2)c1C

>  <assigned.class>
1.0

$$$$
>  <compound>
O=C(N/N=C\c1cc(Br)ccc1O)c1ccncc1

>  <assigned.class>
0.0

$$$$
>  <compound>
c1ccc2c(N=NSc3ncnc4nc[nH]c34)c3ccccc3nc2c1

>  <assigned.class>
1.0

$$$$
>  <compound>
O=C1Nc2ccccc2/C1=C\c1nc(C2CCN(S(=O)(=O)c3ccc(F)cc3)CC2)n2ccccc12

>  <assigned.class>
0.0

$$$$
>  <compound>
CCN1C(=O)N(CC)C2C1NC(=O)N2/N=C/C=C/c1ccccc1 (stereo unspecified)

>  <assigned.class>
0.0

$$$$
>  <compound>
CNC1=C([N+](=O)[O-])C(c2ccccc2O)C(C#N)=C(c2cccs2)O1 (stereo unspecified)

>  <assigned.class>
0.0

$$$$
>  <compound>
Cc1cc2nc(CN)[nH]c2cc1C

>  <assigned.class>
0.0

$$$$
>  <compound>
C=CCOC(=O)C1=C(C)NC2=C(C(=O)CC(C)(C)C2)C1c1ccc(OC)cc1 (stereo unspecified)

>  <assigned.class>
0.0

$$$$
>  <compound>
O=C(Nc1ccccc1)c1cc2ccccc2s1

>  <assigned.class>
0.0

$$$$
